Let's look at some compounds and their measured inhibition.
test: H1N1 influenza NS1A inhibitors, functional cell based assay (AID 504329)
condition.parameters: percent inhibition, at 12.5 µM, stronger effect = higher value
Among all 340,000 compounds or so, about 1,000 (0.29%) were called active. These entries were drawn from the full list. Potency and affinity values are given separately.

Sample answers from the record:
O=C(N/N=C/c1ccc([N+](=O)[O-])cc1)c1cccc(N2CCCC2=O)c1 | -4.45% (inactive)
CC(C)(CNC(=O)C1CCCN1C(=O)c1cccs1)N1CCOCC1 (stereo not given) | -1% (inactive)
O=C(N/N=C/c1cc(Br)ccc1O)c1cccc(N2CCCC2=O)c1 | -7.38% (inactive)

## Input Need inhibition of COc1ccc(N2CC(C(=O)Nc3ccc([N+](=O)[O-])cc3Br)CC2=O)cc1 (stereo not given) , thanks.
## Output -1% (inactive)

## Input Next compound up: O=C(NCC(=O)N(c1ccc(F)cc1)C(C(=O)NC1CCCC1)c1cccnc1)c1cccs1 (stereo not given)
## Output -7.6% (inactive)
